# key: entry, value: IC50
# test_target: NET (norepinephrine transporter) (Rattus norvegicus)
# Construct: Cortex from rat brain was collected and homogenised; from tissue; host or cells: rat brain cortex
# Sequence (Q63380 1-617): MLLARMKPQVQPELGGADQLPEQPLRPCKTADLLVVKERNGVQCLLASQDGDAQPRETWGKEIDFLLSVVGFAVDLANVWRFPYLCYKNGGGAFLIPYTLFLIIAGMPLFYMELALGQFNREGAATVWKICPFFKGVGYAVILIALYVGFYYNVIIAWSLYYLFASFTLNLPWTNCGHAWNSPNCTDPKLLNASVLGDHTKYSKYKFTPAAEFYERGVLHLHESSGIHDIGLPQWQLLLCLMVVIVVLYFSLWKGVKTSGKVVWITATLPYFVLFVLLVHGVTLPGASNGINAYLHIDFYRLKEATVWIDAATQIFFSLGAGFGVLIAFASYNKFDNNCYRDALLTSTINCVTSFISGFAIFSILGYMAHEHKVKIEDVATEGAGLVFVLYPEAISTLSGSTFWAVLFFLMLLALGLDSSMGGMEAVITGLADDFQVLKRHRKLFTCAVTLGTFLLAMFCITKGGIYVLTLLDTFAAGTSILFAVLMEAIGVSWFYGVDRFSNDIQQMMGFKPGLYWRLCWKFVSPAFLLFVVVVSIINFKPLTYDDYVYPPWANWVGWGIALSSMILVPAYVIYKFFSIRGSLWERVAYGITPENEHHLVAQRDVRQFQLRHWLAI
# assay_overview: In vitro determination of NET reuptake inhibition ([3H]Nixosetine binding, rat brain cortex)
# reported_conditions: rat brain cortex, read-out: NET pIC50 (converted)
# Procedure: In Vitro Determination of NET Reuptake Inhibition Cortex from rat brain was collected and homogenised using an Ultra-Turrax T25 and a Dual homogeniser in ice-cold homogenising buffer containing Tris, NaCl and KCl (50 mM, 120 mM and 5 mM, respectively, pH 7.4) prior to dilution to an appropriate protein concentration optimised for specific and non-specific binding. […] Percentage specific bound and competition binding curves were calculated using S-Plus software (Insightful).
assay_endpoint: IC50 (µM)

INSERT INTO measurements (molecule, measure_unit, limit_sign, observed_result) VALUES
  ('CC1c2ccccc2C2CC(CN3CCC(O)C3)OC2c2cc(F)ccc21 (mixture of isomers) [Compound 46]', 'µM', '=', 2.4),
  ('COC1CCN(C[C@H]2C[C@@H]3c4ccccc4Cc4ccc(F)cc4[C@@H]3O2)C1 (stereo partly shown) [Compound 4]', 'µM', '=', 5.89),
  ('Fc1ccc2c(c1)C1OC(CN3CCN(CC=Cc4ccccc4)CC3)CC1c1ccccc1C2 (stereo not shown) [Compound 48]', 'µM', '=', 2.09),
  ('COCC1CCCN1CC1CC2c3ccccc3Cc3ccc(F)cc3C2O1 (mixture of isomers) [Compound 38]', 'µM', '=', 5.13),
  ('Fc1ccc2c(c1)C1OC(CN3CCN(Cc4cnc[nH]4)CC3)CC1c1ccccc1C2 (stereo not shown) [Compound 66]', 'µM', '=', 4.37),
  ('Fc1ccc2c(c1)C1OC(CN3CCN(c4ccc(C(F)(F)F)cn4)CC3)CC1c1ccccc1C2 (stereo not shown) [Compound 120]', 'µM', '>', 10),
  ('COc1ccc(NC(=O)CC2CN(C[C@H]3C[C@@H]4c5ccccc5Cc5ccc(F)cc5[C@@H]4O3)CCO2)cc1 (stereo partly shown) [Compound 139]', 'µM', '>', 10),
  ('OCC1CCCN(C[C@H]2C[C@@H]3c4ccccc4Cc4ccc(F)cc4[C@@H]3O2)C1 (stereo partly shown) [Compound 147]', 'µM', '>', 10),
  ('Fc1ccc(OC2CCN(CC3CC4c5ccccc5Cc5ccc(F)cc5C4O3)C2)cc1 (mixture of isomers) [Compound 36]', 'µM', '=', 4.07),
  ('N#Cc1ccc(NC(=O)NC2CCN(CC3CC4c5ccccc5Cc5ccc(F)cc5C4O3)CC2)cc1 (stereo not shown) [Compound 248]', 'µM', '=', 3.8),
  ('CSc1nccc(N2CCN(CC3CC4c5ccccc5Cc5ccc(F)cc5C4O3)CC2)n1 (stereo not shown) [Compound 124]', 'µM', '=', 2.29),
  ('O=C(OC1CCN(CC2CC3c4ccccc4Cc4ccc(F)cc4C3O2)C1)C1CC1 (mixture of isomers) [Compound 13]', 'µM', '=', 5.01),
  ('Fc1ccc2c(c1)C1OC(CN3CCCC(C4=NCCN4)C3)CC1c1ccccc1C2 (stereo not shown) [Compound 171]', 'µM', '=', 1.41),
  ('COCC(=O)N1CCN(CC2CC3c4ccccc4Cc4ccc(F)cc4C3O2)CC1 (stereo not shown) [Compound 77]', 'µM', '=', 3.63),
  ('Fc1ccc2c(c1)C1OC(CN3CCC(NC(=S)NCCN4CCOCC4)CC3)CC1c1ccccc1C2 (stereo not shown) [Compound 253]', 'µM', '=', 1.51),
  ('O=C(Nc1ccccc1F)C1CCN(CC2CC3c4ccccc4Cc4ccc(F)cc4C3O2)CC1 (stereo not shown) [Compound 189]', 'µM', '>', 10);

* * *

# test_target: human Dopamine D2L receptor (Homo sapiens, UniProt P14416)
# Construct: expressed in transfected cells; host or cells: CHO cells
# Sequence (P14416 whole entry): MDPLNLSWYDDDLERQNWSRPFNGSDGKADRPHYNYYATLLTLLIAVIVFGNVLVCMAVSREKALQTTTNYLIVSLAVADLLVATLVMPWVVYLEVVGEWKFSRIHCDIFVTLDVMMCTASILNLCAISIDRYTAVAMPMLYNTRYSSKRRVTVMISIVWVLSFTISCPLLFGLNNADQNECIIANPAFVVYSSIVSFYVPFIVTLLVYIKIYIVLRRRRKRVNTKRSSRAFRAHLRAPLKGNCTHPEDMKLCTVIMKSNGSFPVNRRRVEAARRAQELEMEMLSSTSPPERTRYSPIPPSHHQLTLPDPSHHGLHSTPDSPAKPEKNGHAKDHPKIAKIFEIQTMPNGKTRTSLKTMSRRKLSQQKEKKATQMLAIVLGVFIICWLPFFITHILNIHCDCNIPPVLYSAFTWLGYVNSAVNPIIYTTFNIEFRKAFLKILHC
# assay_overview: In vitro binding affinity for human D2L receptor ([3H]Spiperone binding)
# reported_conditions: human D2L receptor-transfected CHO cell membranes, read-out: D2L pIC50 (converted)
assay_endpoint: IC50 (nM)

INSERT INTO assay_data (compound, measure_unit, observed_result) VALUES
  ('CCCCNC(=S)N1CCN(C[C@H]2C[C@@H]3c4ccccc4Cc4ccc(F)cc4[C@@H]3O2)CC1 [Compound 108]', 'nM', 29.5),
  ('CCS(=O)(=O)N1CCN(CC2CC3c4ccccc4Cc4ccc(F)cc4C3O2)CC1 (centres unmarked) [Compound 103]', 'nM', 19.5),
  ('Fc1ccc2c(c1)C1OC(CN3CCN(c4ccc(C(F)(F)F)cn4)CC3)CC1c1ccccc1C2 (centres unmarked) [Compound 120]', 'nM', 363),
  ('O=C(NC1CCN(CC2CC3c4ccccc4Cc4ccc(F)cc4C3O2)CC1)C1CC1 (centres unmarked) [Compound 220]', 'nM', 4.27),
  ('O=C(NC1CCN(CC2CC3c4ccccc4Cc4ccc(F)cc4C3O2)CC1)c1ccccc1F (centres unmarked) [Compound 232]', 'nM', 4.79),
  ('COC(=O)C1CCN(C[C@H]2C[C@@H]3c4ccccc4Cc4ccc(F)cc4[C@@H]3O2)C1 (single isomer, unassigned) [Compound 11]', 'nM', 9.77),
  ('O=C(Cc1ccccc1)OC1CCN(CC2CC3c4ccccc4Cc4ccc(F)cc4C3O2)C1 (mixture of isomers) [Compound 18]', 'nM', 10.2),
  ('CC(C)NC(=O)N1CCN(CC2CC3c4ccccc4Cc4ccc(F)cc4C3O2)CC1 (centres unmarked) [Compound 88]', 'nM', 22.9);

* * *

# test_target: human Dopamine D2L receptor (Homo sapiens, UniProt P14416)
# Construct: expressed in transfected cells; host or cells: CHO cells
# assay_overview: In vitro binding affinity for human D2L receptor ([3H]Spiperone binding)
# reported_conditions: human D2L receptor-transfected CHO cell membranes, read-out: D2L pIC50 (converted)
# Protocol: In Vitro Binding Affinity for Human D2L Receptor Frozen membranes of human Dopamine D2L receptor-transfected CHO cells were thawed, briefly homogenised using an Ultra-Turrax T25 homogeniser and diluted in Tris-HCl assay buffer containing NaCl, CaCl2, MgCl2, KCl (50, 120, 2, 1, and 5 mM respectively, adjusted to pH 7.7 with HCl) to an appropriate protein concentration optimised for specific and non-specific binding. […]
# key: entry, value: IC50
assay_endpoint: IC50 (nM)

INSERT INTO results (molecule, test_target, assay_endpoint, observed_result) VALUES
  ('O=S(=O)(c1ccccc1)N1CCN(CC2CC3c4ccccc4Cc4ccc(F)cc4C3O2)CC1 (centres unmarked)', 'human Dopamine D2L receptor (Homo sapiens, UniProt P14416)', 'IC50', 44.7),
  ('CCOC(=O)C=C1CCN(CC2CC3c4ccccc4Cc4ccc(F)cc4C3O2)CC1 (centres unmarked)', 'human Dopamine D2L receptor (Homo sapiens, UniProt P14416)', 'IC50', 38.9),
  ('CN(C)C1CCN(CC2CC3c4ccccc4Cc4ccc(F)cc4C3O2)C1 (mixture of isomers)', 'human Dopamine D2L receptor (Homo sapiens, UniProt P14416)', 'IC50', 9.12),
  ('Fc1ccc2c(c1)C1OC(CN3CCC(NC(=S)Nc4cccnc4)CC3)CC1c1ccccc1C2 (centres unmarked)', 'human Dopamine D2L receptor (Homo sapiens, UniProt P14416)', 'IC50', 12.3),
  ('O=C(NC1CCN(CC2CC3c4ccccc4Cc4ccc(F)cc4C3O2)CC1)c1ccc(Cl)c(Cl)c1 (centres unmarked)', 'human Dopamine D2L receptor (Homo sapiens, UniProt P14416)', 'IC50', 14.8),
  ('O=C(CCN1CCN(CC2CC3c4ccccc4Cc4ccc(F)cc4C3O2)CC1)c1ccc(F)cc1 (centres unmarked)', 'human Dopamine D2L receptor (Homo sapiens, UniProt P14416)', 'IC50', 1.2),
  ('O=C(O)CC1CN(C[C@H]2C[C@@H]3c4ccccc4Cc4ccc(F)cc4[C@@H]3O2)CCO1 (some centres unmarked)', 'human Dopamine D2L receptor (Homo sapiens, UniProt P14416)', 'IC50', 41.7),
  ('CCCOC(=O)NC1CCN(CC2CC3c4ccccc4Cc4ccc(F)cc4C3O2)CC1 (centres unmarked)', 'human Dopamine D2L receptor (Homo sapiens, UniProt P14416)', 'IC50', 6.03);

* * *

# test_target: human cloned 5-HT2C receptor, expressed in CHO cells (Homo sapiens, UniProt P28335)
# Construct: expressed in transfected cells; host or cells: CHO cells
# Sequence (P28335 33-458): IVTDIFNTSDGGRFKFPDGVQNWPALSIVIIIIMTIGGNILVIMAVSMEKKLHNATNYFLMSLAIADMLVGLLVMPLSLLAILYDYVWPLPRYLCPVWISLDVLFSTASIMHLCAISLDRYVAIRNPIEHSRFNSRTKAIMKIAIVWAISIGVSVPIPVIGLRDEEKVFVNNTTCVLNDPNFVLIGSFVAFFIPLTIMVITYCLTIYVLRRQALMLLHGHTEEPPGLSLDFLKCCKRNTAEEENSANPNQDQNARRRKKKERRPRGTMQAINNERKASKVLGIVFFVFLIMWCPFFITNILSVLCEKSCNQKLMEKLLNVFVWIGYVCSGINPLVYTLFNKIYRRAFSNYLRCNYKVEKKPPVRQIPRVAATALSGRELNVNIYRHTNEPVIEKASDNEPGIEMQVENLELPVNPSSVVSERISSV
# assay_overview: In vitro binding affinity for 5-HT2C receptor ([3H]mesulergine radioligand binding)
# reported_conditions: human cloned 5-HT2C receptor, read-out: 5-HT2C pIC50 (converted)
Label Criterion met when IC50 is strictly below 7 nM; at or above that, label Criterion not met.

INSERT INTO results (compound, category) VALUES
  ('CCCCNC(=O)N1CCN(CC2CC3c4ccccc4Cc4ccc(F)cc4C3O2)CC1 (stereo not shown)', 'Criterion met'),
  ('N#Cc1cccc(OC2CCN(CC3CC4c5ccccc5Cc5ccc(F)cc5C4O3)C2)c1 (mixture of isomers)', 'Criterion met'),
  ('Fc1cccc(OCC2CCN(CC3CC4c5ccccc5Cc5ccc(F)cc5C4O3)C2)c1 (stereo not shown)', 'Criterion met'),
  ('COc1cc(NC(=S)NC2CCN(CC3CC4c5ccccc5Cc5ccc(F)cc5C4O3)CC2)cc(OC)c1OC (stereo not shown)', 'Criterion not met'),
  ('O=C(NC1CCN(CC2CC3c4ccccc4Cc4ccc(F)cc4C3O2)CC1)c1c(F)c(F)c(F)c(F)c1F (stereo not shown)', 'Criterion not met'),
  ('COC(=O)c1ccc(CN2CCN(CC3CC4c5ccccc5Cc5ccc(F)cc5C4O3)CC2)cc1 (stereo not shown)', 'Criterion not met'),
  ('O=C(NCc1cccc(C(F)(F)F)c1)C1CCN(CC2CC3c4ccccc4Cc4ccc(F)cc4C3O2)CC1 (stereo not shown)', 'Criterion not met'),
  ('O=C(NCCCn1ccnc1)C1CCN(CC2CC3c4ccccc4Cc4ccc(F)cc4C3O2)CC1 (stereo not shown)', 'Criterion met'),
  ('OCC1CC2CN(C[C@H]3C[C@@H]4c5ccccc5Cc5ccc(F)cc5[C@@H]4O3)CCC2O1 (stereo partly shown)', 'Criterion met'),
  ('O=C(C1CCN(CC2CC3c4ccccc4Cc4ccc(F)cc4C3O2)CC1)N1CC=CC1 (stereo not shown)', 'Criterion not met'),
  ('CCCCOC(=O)NC1CCN(CC2CC3c4ccccc4Cc4ccc(F)cc4C3O2)CC1 (stereo not shown)', 'Criterion not met'),
  ('O=C(c1ccccc1)N1CCN(CC2CC3c4ccccc4Cc4ccc(F)cc4C3O2)CC1 (stereo not shown)', 'Criterion met'),
  ('OC1CCCN(CC2CC3c4ccccc4Cc4ccc(F)cc4C3O2)C1 (single isomer, unassigned) [Compound 143]', 'Criterion met'),
  ('CN(C)C(=O)CC1CN(C[C@H]2C[C@@H]3c4ccccc4Cc4ccc(F)cc4[C@@H]3O2)CCO1 (stereo partly shown)', 'Criterion met'),
  ('COc1ccc(NC(=O)CC2CN(C[C@H]3C[C@@H]4c5ccccc5Cc5ccc(F)cc5[C@@H]4O3)CCO2)cc1 (stereo partly shown)', 'Criterion not met'),
  ('O=C(C1CCCC1)N1CCN(CC2CC3c4ccccc4Cc4ccc(F)cc4C3O2)CC1 (stereo not shown)', 'Criterion not met'),
  ('Fc1ccc2c(c1)C1OC(CN3CCN(Cc4cc5ccccc5o4)CC3)CC1c1ccccc1C2 (stereo not shown)', 'Criterion not met'),
  ('Fc1ccc2c(c1)[C@@H]1O[C@@H](CN3CCN(CC4CCCCC4)CC3)C[C@@H]1c1ccccc1C2', 'Criterion not met'),
  ('O=C(CCN1CCN(CC2CC3c4ccccc4Cc4ccc(F)cc4C3O2)CC1)c1ccc(F)cc1 (stereo not shown)', 'Criterion met'),
  ('CCOC(=O)CNC(=O)N1CCN(CC2CC3c4ccccc4Cc4ccc(F)cc4C3O2)CC1 (stereo not shown)', 'Criterion not met'),
  ('C=CCN(C)C(=O)C1CCN(CC2CC3c4ccccc4Cc4ccc(F)cc4C3O2)CC1 (stereo not shown)', 'Criterion met'),
  ('CC(C)(C)NC(=S)N1CCN(CC2CC3c4ccccc4Cc4ccc(F)cc4C3O2)CC1 (stereo not shown)', 'Criterion not met'),
  ('O=C(NC1CCCCC1)N1CCN(CC2CC3c4ccccc4Cc4ccc(F)cc4C3O2)CC1 (stereo not shown)', 'Criterion not met'),
  ('OCC1CCCN(C[C@H]2C[C@@H]3c4ccccc4Cc4ccc(F)cc4[C@@H]3O2)C1 (stereo partly shown)', 'Criterion met'),
  ('N#CC1(c2ccccc2)CCN(C(=O)C2CCN(CC3CC4c5ccccc5Cc5ccc(F)cc5C4O3)CC2)CC1 (stereo not shown)', 'Criterion not met'),
  ('Fc1ccc2c(c1)C1OC(CN3CCN(Cc4cccc5ccccc45)CC3)CC1c1ccccc1C2 (stereo not shown)', 'Criterion not met'),
  ('OC(COc1ccc(Cl)cc1)CN1CCN(C[C@H]2C[C@@H]3c4ccccc4Cc4ccc(F)cc4[C@@H]3O2)CC1 (stereo partly shown)', 'Criterion not met'),
  ('Cc1ccc(C(=O)OC2CCN(CC3CC4c5ccccc5Cc5ccc(F)cc5C4O3)C2)cc1 (mixture of isomers)', 'Criterion met'),
  ('Fc1ccc2c(c1)C1OC(CN3CCN(Cc4cccs4)CC3)CC1c1ccccc1C2 (stereo not shown)', 'Criterion not met'),
  ('O=C(Nc1ccc2c(c1)CCC2)NC1CCN(CC2CC3c4ccccc4Cc4ccc(F)cc4C3O2)CC1 (stereo not shown)', 'Criterion met'),
  ('CC(C)(C)NC(=O)C1CCN(CC2CC3c4ccccc4Cc4ccc(F)cc4C3O2)CC1 (stereo not shown)', 'Criterion met');
